System: SNB-19
measurement protocol: NCI tumour cell line growth inhibition, 48 h
Activity calls are given as the source filed them. Rule as the data show it: active = GI50 up to about 1.1 µM and inactive = higher.
Hi there, I'd appreciate the recorded GI50 for every entry that follows.

Recorded GI50 for COc1cc(/N=N\c2cccc(S(=O)(=O)O)c2)c(C)cc1/N=N\c1ccc(/C=C/c2ccc(/N=[N+](/[O-])c3ccc(/C=C/c4ccc(/N=N\c5cc(C)c(/N=N/c6cccc(S(=O)(=O)O)c6)cc5OC)cc4)c(S(=O)(=O)O)c3)cc2S(=O)(=O)O)cc1 , please?
> 100 µM (inactive)

Recorded GI50 for O=C1NCCCc2nonc21 , please?
> 100 µM (inactive)

Recorded GI50 for Cc1c(Cc2ccccc2)c(Cc2ccccc2)c(C)[s+]1[O-] , please?
47.1 µM (inactive)

Recorded GI50 for CC(=O)NC(Cc1ccsc1)C(=O)O (centres undefined) , please?
> 100 µM (inactive)

Recorded GI50 for O=S(=O)(/C=C/C=C/S(=O)(=O)c1ccccc1)c1ccccc1 , please?
17.5 µM (inactive)

Recorded GI50 for O=c1ncccn1[C@@H]1O[C@H](CO)[C@@H](O)[C@@H]1F , please?
> 100 µM (inactive)

Recorded GI50 for NC(Cc1ccccc1)(C(=O)O)C(=O)O , please?
> 100 µM (inactive)

Recorded GI50 for CCCN(CCC)C(=S)Sc1nc(C)nc(N2CCN(c3nc(C)nc(SC(=S)N(CCC)CCC)c3[N+](=O)[O-])CC2)c1[N+](=O)[O-] , please?
22.6 µM (inactive)

Recorded GI50 for O=C(O)c1ccccc1NS(=O)(=O)c1ccc(Cl)cc1 , please?
> 100 µM (inactive)

* * *

System: UACC-62
measurement protocol: NCI tumour cell line growth inhibition, 48 h
Calls of active or inactive are those of the source. Rule as the data show it: active = GI50 up to about 1.1 µM and inactive = higher.
Hi there, I'd appreciate the recorded GI50 for every entry that follows.

Recorded GI50 for O=c1[nH]nc(Cc2c[nH]c3ccccc23)o1 , please?
> 100 µM (inactive)

Recorded GI50 for CCOC(=O)CCCn1nnc(C(=O)OCC)c1C(=O)OCC , please?
> 100 µM (inactive)

Recorded GI50 for CC1C(c2ccccc2)=CCON1c1ccccc1 (stereo unspecified) , please?
> 100 µM (inactive)

Recorded GI50 for S=C1OC2CCCC[C@H]2O1 (stereo partly specified) , please?
> 100 µM (inactive)

Recorded GI50 for CN(C)c1ccc(/C=C2\N=C(c3ccc(N)cc3)OC2=O)cc1 , please?
> 100 µM (inactive)

Recorded GI50 for CC1(C)CCC[C@@]2(C)C1CC[C@@]1(CO1)[C@@H]2/C=C\C(C=O)CC=O (stereo partly specified) , please?
> 100 µM (inactive)

Recorded GI50 for CCOc1ccc2ccccc2c1NC1=NCCO1 , please?
39.4 µM (inactive)

Recorded GI50 for COC(=O)[C@@H]1[C@H](O)CC[C@H]2[C@@]1(C)CC[C@@H](C)[C@]2(COC(C)=O)CC(=O)c1ccoc1 , please?
20.9 µM (inactive)

Recorded GI50 for N#C/C(=C\c1ccc(F)cc1)c1nc2ccccc2c(=O)[nH]1 , please?
> 100 µM (inactive)

Recorded GI50 for NC(S)=Nc1cc(Cl)ccc1Cl , please?
> 100 µM (inactive)

Recorded GI50 for N#Cc1c(N)c2c(c(-c3ccccc3)c1-c1ccccc1)C(=O)N(NC(=O)c1ccccc1)C2=O , please?
75.9 µM (inactive)

Recorded GI50 for CC(=O)NC(CCCNC(=O)NCCCl)C(=O)NCc1ccccc1 (stereo unspecified) , please?
> 100 µM (inactive)

Recorded GI50 for O=c1[nH]nc(Cc2ccc(Cl)cc2)n1Nc1ccccc1 , please?
> 100 µM (inactive)

Recorded GI50 for Cc1oc2c(cc(O)c3cc(O)ccc32)c2cccc1-2 , please?
> 100 µM (inactive)

Recorded GI50 for CCCCCCCCC(=O)CCCCCCCCC(=O)O , please?
20.1 µM (inactive)

Recorded GI50 for COc1cc(C(C#N)NNc2nc(C)cc(O)n2)cc(OC)c1OC (stereo unspecified) , please?
> 100 µM (inactive)

Recorded GI50 for CCN(CC)CCC(=O)/C=C/c1ccc(C)cc1 , please?
16.6 µM (inactive)

Recorded GI50 for O=c1/c(=C/c2c(O)ccc3ccccc23)sc2nc3ccccc3n12 , please?
> 100 µM (inactive)

Recorded GI50 for Cc1nc(C(N)=S)sc1C(=O)CC(=O)C(=O)Nc1ccc(Br)cc1 , please?
> 100 µM (inactive)

Recorded GI50 for O=S(=O)(SCc1ccccc1)C(c1ccccc1)c1ccccc1 , please?
27.5 µM (inactive)

Recorded GI50 for Cc1c(O)nc(/C=C/C(=O)O)nc1C(=O)O , please?
> 100 µM (inactive)

* * *

Tested on: CCRF-CEM
measurement protocol: NCI tumour cell line growth inhibition, 48 h
Active and inactive are the calls of the source. Rule as the data show it: active = GI50 up to about 1.1 µM and inactive = higher.
Returns: one label drawn from yes (1) = active, no (0) = inactive

What classification did O=c1cc(-c2ccccc2)[nH]c2c(Cl)cccc12 end up with in this test?
no (0)

What classification did COc1ccc(N2C(=O)c3cc([N+](=O)[O-])cnc3S2(=O)=O)cc1 end up with in this test?
no (0)

What classification did COC(=O)c1cc(C)n2c1CS[C@@H]2c1ccccc1 end up with in this test?
no (0)

What classification did Cc1nn(C(=O)c2ccc(Cl)cc2)c2c1C(c1cccc([N+](=O)[O-])c1)SC(=N)N2 (stereo unspecified) end up with in this test?
no (0)

What classification did CCOC(=O)c1c(SCCCN2CCCCC2)n(-c2ccccc2)c(=S)n(-c2ccccc2)c1=O end up with in this test?
no (0)

What classification did O=C1NC(=S)NC(=O)C1C(c1ccc(Cl)cc1)C1C(=O)NC(=S)NC1=O.c1ccncc1 end up with in this test?
no (0)

What classification did O=C(O)c1cccc(/N=N/c2c(S(=O)(=O)O)ccc3c2C(=O)c2ccccc2C3=O)c1O end up with in this test?
no (0)

What classification did Cc1ccc(CS(=O)(=O)C/N=C2\Sc3ccccc3N\C2=C/C(=O)c2ccc(Cl)cc2)cc1 end up with in this test?
yes (1)

What classification did COc1cc2c(c(OC)c1OC)-c1ccc(OC)c(=O)cc1C(NC(=O)CCCCCNc1ccc(N=[N+]=[N-])cc1[N+](=O)[O-])CC2 (stereo unspecified) end up with in this test?
yes (1)

What classification did COc1cc(C)cc2c(-c3c(O)cc(O)c4c3C[C@H](C)N[C@H]4C)cc(-c3cc(-c4c(O)cc(O)c5c4C[C@H](C)N[C@H]5C)c4cc(C)cc(OC)c4c3O)c(O)c12 end up with in this test?
no (0)

What classification did COC1(OC)c2no[n+]([O-])c2C(OC)(OC)c2c1no[n+]2[O-] end up with in this test?
no (0)

What classification did [N-]=[N+]=Nc1c(Cc2ccccc2)c(Cl)nc2ccccc12 end up with in this test?
no (0)

What classification did Cc1ccc(/C=C2\CCCC(CN3CCCCC3)C2=O)cc1 (stereo unspecified) end up with in this test?
yes (1)

What classification did NC(Cc1ccccc1)(C(=O)O)C(=O)O end up with in this test?
no (0)

What classification did COc1ccc2c(c1)C1Oc3ccccc3CC1CO2 (stereo unspecified) end up with in this test?
no (0)

What classification did CN1C/C(=C\C=C\c2ccccc2)C(=O)/C(=C/C=C/c2ccccc2)C1 end up with in this test?
no (0)

What classification did N#CC1(c2ccccc2)CCN(C2(c3ccccc3)CCCCC2)CC1 end up with in this test?
no (0)

What classification did COc1ccc2c(c1)C(=O)c1ccc(OC)cc1C2=S end up with in this test?
no (0)

What classification did NC(C(F)(F)F)(C(F)(F)F)P(=O)(c1ccccc1)c1ccccc1 end up with in this test?
no (0)

What classification did O=C(CC/C(CC(=O)c1ccc(Br)cc1)=N\O)Nc1ccc(Cl)c(Cl)c1 end up with in this test?
no (0)

What classification did COC1C(O)C(C)OC(O[C@H]2CC[C@@]3(C)C(CC[C@@H]4[C@@H]3CC[C@]3(C)[C@@H](C(C)OC5OC(CO)C(O)C(O)C5O)CC[C@]43O)C2)C1O (stereo partly specified) end up with in this test?
no (0)

What classification did O=C(CN(c1ccccc1)c1ccccc1)n1nnc2ccccc21 end up with in this test?
no (0)

What classification did O=C1CC(=O)N(c2ccccc2)N1/C(=C/c1ccccc1)c1ccccc1 end up with in this test?
yes (1)

What classification did [N-]=[N+]=Nc1cc(=O)[nH]c2ccccc12 end up with in this test?
no (0)

What classification did O=C1NC(=S)N/C1=C\c1ccc(Br)s1 end up with in this test?
no (0)

What classification did CN(C)C(=O)CO/N=C1/C(=C2/C(=O)Nc3ccccc32)Nc2ccccc21 end up with in this test?
no (0)

What classification did CCOC(=O)CCCn1nnc(C(=O)OCC)c1C(=O)OCC end up with in this test?
no (0)

What classification did CCCNC(=O)Cn1c2c(c3ccccc31)CCCC2 end up with in this test?
no (0)

What classification did O=S(=O)(c1ccccc1)c1ccc(-c2nc(-c3ccc4c(c3)Sc3ccccc3S4)cs2)cc1 end up with in this test?
no (0)

What classification did Cn1c(=N)n[n+]([O-])c2ccccc21 end up with in this test?
no (0)

What classification did COc1ccc(/N=c2\ssc(C(=S)Nc3ccc(OC)cc3)c2S)cc1 end up with in this test?
no (0)

What classification did Cc1ccc([S+]([O-])C[C@](NC(=O)OCc2ccccc2)(Sc2ccccc2)C(F)F)cc1 (stereo partly specified) end up with in this test?
yes (1)

What classification did CCOC(=O)c1c(-c2ccccc2)c(OC)cn1C end up with in this test?
no (0)

What classification did O=C(O)CCSC(=O)Nc1cccc([N+](=O)[O-])c1 end up with in this test?
no (0)

What classification did CC(C)(O)C1COC2=C1C(=O)c1ccccc1C2=O (stereo unspecified) end up with in this test?
no (0)

What classification did COc1ccc(C)cc(O)c1=O end up with in this test?
no (0)

What classification did CCOc1cccc2cccnc12 end up with in this test?
no (0)

What classification did Cc1ccc(S(=O)(=O)N/N=c2/sc3ccccc3n2C)cc1 end up with in this test?
no (0)

What classification did CC(C)(C)OC/C=C1\C(=O)O[C@H]2C[C@@H](O[Si](C)(C)C(C)(C)C)C[C@@H]12 end up with in this test?
no (0)

What classification did C=C1C[C@@H]2O[C@H]3[C@H]4[C@@H](C[C@@H](C)[C@@H](OC(C)=O)[C@H]42)[C@@H](C)CO[C@@]3(C)[C@H](OC(=O)CCCCCCC)C[C@H]1O end up with in this test?
no (0)

What classification did CN(CCSCCN(C)C(=O)OC(C)(C)C)C(=O)OC(C)(C)C end up with in this test?
no (0)
